Listed here: items and their measured one-hybrid fitness for binding NBS DNA.
B1: Caulobacter ParB omega fusion; a variant is named by its letters at X, in order, B8GW30 (parent)
chain: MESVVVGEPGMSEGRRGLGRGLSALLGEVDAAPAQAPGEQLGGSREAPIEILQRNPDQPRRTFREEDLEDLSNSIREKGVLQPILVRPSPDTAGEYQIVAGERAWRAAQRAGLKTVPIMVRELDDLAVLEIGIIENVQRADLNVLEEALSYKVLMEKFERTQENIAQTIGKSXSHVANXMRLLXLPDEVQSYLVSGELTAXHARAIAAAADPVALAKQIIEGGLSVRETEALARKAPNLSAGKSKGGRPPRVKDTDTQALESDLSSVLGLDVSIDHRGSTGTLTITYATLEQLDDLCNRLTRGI

Variants of: B1
test: one-hybrid fitness for binding NBS DNA (the Noc-binding site; scaled: cognate 1, non-cognate 0); higher = stronger binding
protocolConditions: with NBS DNA site
Whole data set: some 81,000 sequences, median “one-hybrid fitness for binding NBS DNA” near -0.1, cut for the highest 2% near 0.36. For the sample, the highest values were picked, then their nearest neighbours and some sequences at random.

Take a look at these entries with their results.
IRKS = 0.37
VKGG = ≤ 0.2
FARS = ≤ 0.2
RPAW = ≤ 0.2
DRTR = ≤ 0.2
QKAS = 0.498

I am curious: what one-hybrid fitness for binding NBS DNA value has been reported for QYAW ?
≤ 0.2

Would you mind telling me what one-hybrid fitness for binding NBS DNA value was observed for RSAP ?
≤ 0.2

Item QCTQ has what recorded one-hybrid fitness for binding NBS DNA?
≤ 0.2

one-hybrid fitness for binding NBS DNA lookup needed for QPTV , thanks.
≤ 0.2

Look up one-hybrid fitness for binding NBS DNA for this variant: RCAW
0.431

Dear colleague, I am looking for the recorded one-hybrid fitness for binding NBS DNA of the following variant: QHTS
0.372

// query one-hybrid fitness for binding NBS DNA value for entry ERLC
≤ 0.2

// one-hybrid fitness for binding NBS DNA lookup, key: RRRM
0.651

What does the data say about its one-hybrid fitness for binding NBS DNA? Entry: ISKT
≤ 0.2

Param item = YSMI ; retrieve measured one-hybrid fitness for binding NBS DNA.
≤ 0.2

Consider the variant KWAS and give its measured one-hybrid fitness for binding NBS DNA.
≤ 0.2

Would you mind telling me what one-hybrid fitness for binding NBS DNA value was observed for CPTM ?
≤ 0.2
